Assay: The drug is tested on WLS-082 corresponding to human gut metagenome with ENA study accession number: PRJEB37062 and ENA sample accession number: ERS12561751 for biotransformation under anaerobic condition. The drug concentrations were measured over 9 timepoints collected between 0 and 24 hours of incubation by liquid-chromatography-coupled mass spectrometry (LC–MS); also: call rule not given here
Settings: 2 µM
Test Readout: Bacterial Biotransformation

Cc1nc(Nc2ncc(C(=O)Nc3c(C)cccc3Cl)s2)cc(N2CCN(CCO)CC2)n1 [DASATINIB ANHYDROUS]	Compound metabolized
COc1ccc(/C=C/C(=O)Nc2ccccc2C(=O)O)cc1OC	Compound metabolized
CCCC(C)(COC(N)=O)COC(=O)NC(C)C (centres undefined)	Compound metabolized
O=P1(N(CCCl)CCCl)NCCCO1 (centres undefined) [CYCLOPHOSPHAMIDE ANHYDROUS]	Compound metabolized
CC(C)c1c(CN(C)C(C)Cc2ccccc2)n(C)n(-c2ccccc2)c1=O (centres undefined)	Compound metabolized

Q: Read the entry CCOc1ccc2nc(S(N)(=O)=O)sc2c1 [ETHOXZOLAMIDE] and write its reported Bacterial Biotransformation.
A: Compound NOT metabolized

Q: Read the entry COc1cc2nc(N3CCN(C(=O)C4COc5ccccc5O4)CC3)nc(N)c2cc1OC.CS(=O)(=O)O (centres undefined) [DOXAZOSIN MESYLATE] and write its reported Bacterial Biotransformation.
A: Compound metabolized

Q: Read the entry CCN(C(C)=O)c1cccc(-c2ccnc3c(C#N)cnn23)c1 and write its reported Bacterial Biotransformation.
A: Compound metabolized

Q: Read the entry CC(C)[C@H]1CC[C@H](C(=O)N[C@H](Cc2ccccc2)C(=O)O)CC1 [NATEGLINIDE] and write its reported Bacterial Biotransformation.
A: Compound metabolized

Q: Read the entry O=C([O-])C[C@H](O)C[C@H](O)/C=C/c1c(C2CC2)nc2ccccc2c1-c1ccc(F)cc1.O=C([O-])C[C@H](O)C[C@H](O)/C=C/c1c(C2CC2)nc2ccccc2c1-c1ccc(F)cc1.[Ca+2] and write its reported Bacterial Biotransformation.
A: Compound metabolized

Q: Read the entry CCCCC(=O)O[C@]1(C(=O)CO)[C@@H](C)C[C@H]2[C@@H]3CCC4=CC(=O)C=C[C@]4(C)[C@@]3(F)[C@@H](O)C[C@@]21C [BETAMETHASONE VALERATE] and write its reported Bacterial Biotransformation.
A: Compound metabolized

Q: Read the entry COc1ccccc1OCCNCC(O)COc1cccc2[nH]c3ccccc3c12 (centres undefined) and write its reported Bacterial Biotransformation.
A: Compound metabolized

Q: Read the entry CC1Cc2ccccc2N1NC(=O)c1ccc(Cl)c(S(N)(=O)=O)c1 (centres undefined) [INDAPAMIDE] and write its reported Bacterial Biotransformation.
A: Compound NOT metabolized
